target-desc: recombinant human TFPI (tissue factor pathway inhibitor) (human, UniProt P10646 29-304)
experiment: cell-based or functional assay
Below is a list of entries, each paired with its recorded A405, TF/FVIIa/FX complex assay, Ab 12.5 nM value.
outcome-measure: A405, TF/FVIIa/FX complex assay, Ab 12.5 nM

binder	assay-result
clone 3241 (antibody, V domains shown, scFv on yeast at selection; human IgG4/kappa IgG as purified; also called No. 3241 antibody) VH: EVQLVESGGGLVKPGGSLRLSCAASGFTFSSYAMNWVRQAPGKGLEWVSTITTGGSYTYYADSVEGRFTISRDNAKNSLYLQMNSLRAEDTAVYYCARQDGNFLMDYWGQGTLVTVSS VL: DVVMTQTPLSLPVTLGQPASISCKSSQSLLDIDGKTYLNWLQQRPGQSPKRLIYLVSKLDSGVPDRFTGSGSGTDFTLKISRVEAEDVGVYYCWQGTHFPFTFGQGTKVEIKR	0.305
clone 1023 (antibody, V domains shown, scFv on yeast at selection; human IgG4/kappa IgG as purified) VH: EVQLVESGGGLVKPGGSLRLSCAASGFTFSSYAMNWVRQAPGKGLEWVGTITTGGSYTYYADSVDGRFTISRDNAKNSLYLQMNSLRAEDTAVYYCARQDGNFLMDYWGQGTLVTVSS VL: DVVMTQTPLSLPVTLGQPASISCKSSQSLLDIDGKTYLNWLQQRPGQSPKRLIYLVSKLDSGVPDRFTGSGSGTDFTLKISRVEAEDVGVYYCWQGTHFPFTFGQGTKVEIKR	0.29
clone 3203 (antibody, V domains shown) VH: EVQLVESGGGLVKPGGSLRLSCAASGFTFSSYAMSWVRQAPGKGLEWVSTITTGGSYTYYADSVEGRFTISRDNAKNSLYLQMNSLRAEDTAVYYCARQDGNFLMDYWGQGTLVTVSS VL: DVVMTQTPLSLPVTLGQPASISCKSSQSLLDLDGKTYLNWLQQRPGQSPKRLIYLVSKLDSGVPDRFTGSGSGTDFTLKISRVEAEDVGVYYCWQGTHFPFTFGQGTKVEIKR	0.208
